- System under test: human orexin type 2 receptor (hOX2R) (Homo sapiens (Human))
- Test name: Measurement of orexin type 2 receptor agonist activity (Experimental Example 2-1, FLIPR TETRA, intracellular Ca2+)
- Type: cell-based
- Assay conditions: CHO dhfr- cells expressing hOX2R, FLIPR TETRA, Fluo-4AM; read-out: Emax (%)
Attribute measured: Emax
Number first, unit second.

Emax for CS(=O)(=O)N[C@H]1CCCN(S(C)(=O)=O)[C@H]1CO[C@H]1CC[C@@H](c2ccccc2)CC1 (relative stereo) ? 96%

Which value of Emax has been reported for CCS(=O)(=O)N[C@H]1CCCN(C(=O)C2CC2)[C@H]1CO[C@H]1CC[C@@H](c2ccccc2)CC1 (relative stereo) in the records? 97%

Could you share which Emax value was measured for CS(=O)(=O)N[C@H]1CCCN(C(=O)[C@@H]2CCOC2)[C@H]1CO[C@H]1CC[C@@H](c2ccccc2)CC1 ? 99%

Look up Emax for this compound: CS(=O)(=O)N[C@H]1CCCN(C(=O)CO)[C@H]1CO[C@H]1CC[C@@H](c2ccccc2)CC1 98%

----------
- System under test: human orexin type 2 receptor (hOX2R) (Homo sapiens (Human))
- Test name: Measurement of orexin type 2 receptor agonist activity (Experimental Example 2-1, FLIPR TETRA, intracellular Ca2+)
- Format: cell-based
- Assay conditions: CHO dhfr- cells expressing hOX2R, FLIPR TETRA, Fluo-4AM; read-out: Emax (%)
Attribute measured: Emax (%)
Answer in %, number only, no unit symbol.

Report Emax for CS(=O)(=O)N[C@H]1CCCN(C(=O)C2CC2)[C@H]1COC1CCN(c2ccccc2F)CC1 please. 113

// query Emax value for entry CCNC(=O)N1CCC[C@H](NS(C)(=O)=O)[C@@H]1CO[C@H]1C[C@@H](c2ccc(C)cc2)C1 (relative stereo) 108

What measured Emax goes with CC(=O)C(=O)N1CCC[C@H](NS(C)(=O)=O)[C@@H]1CO[C@H]1CC[C@@H](c2ccccc2)CC1 (relative stereo) ? 96

Quick one: Emax for CCNC(=O)N1CCC[C@H](NS(C)(=O)=O)[C@@H]1CO[C@H]1C[C@H](Oc2ccccc2)C1 (relative stereo) ? 81

Emax for COC(=O)N1CCC[C@H](NS(C)(=O)=O)[C@@H]1COC1CCN(c2ccccc2C(F)(F)F)CC1 (relative stereo) ? 80

Emax lookup needed for CS(=O)(=O)N[C@H]1CCCN[C@H]1CO[C@H]1CC[C@@H](c2ccccc2C#N)CC1 (relative stereo) , thanks. 94

----------
- System under test: human orexin type 2 receptor (hOX2R) (Homo sapiens (Human))
- Test name: Measurement of orexin type 2 receptor agonist activity (Experimental Example 2-1, FLIPR TETRA, intracellular Ca2+)
- Type: cell-based
- Assay conditions: CHO dhfr- cells expressing hOX2R, FLIPR TETRA, Fluo-4AM; read-out: Emax (%)
Attribute measured: Emax (%)
# number only, unit % dropped from output

For the compound CC(=O)N1CCC[C@H](NS(C)(=O)=O)[C@@H]1CO[C@H]1CC[C@@H](c2cc(F)ccc2F)CC1 (relative stereo) , what Emax is on record? 92

# query: Emax of entry CS(=O)(=O)N[C@H]1CCCN(C(=O)OCC(F)(F)F)[C@H]1COC1CCN(c2ncccn2)CC1 (relative stereo) 93

Emax lookup needed for COC(=O)N1CCC[C@H](NS(C)(=O)=O)[C@@H]1CO[C@H]1CC[C@]2(CC1)OCc1ccccc12 , thanks. 87

Entry CCNC(=O)N1CCC[C@H](NS(C)(=O)=O)[C@@H]1CO[C@H]1C[C@H](c2ccccc2)C1 (relative stereo) : reported Emax = ? 96

Which Emax is listed for CC(=O)N1CCC[C@H](NS(C)(=O)=O)[C@@H]1CO[C@H]1CC[C@@H](c2ccc(F)c(F)c2)CC1 (relative stereo) ? 95

Any idea what Emax was measured for CCNC(=O)N1CCC[C@H](NS(C)(=O)=O)[C@@H]1CO[C@H]1CC[C@@H](c2ccn(C)n2)CC1 (relative stereo) ? 96

Suppose we examine the compound COC(=O)N1CCC[C@H](NS(C)(=O)=O)[C@@H]1CO[C@H]1CC[C@@](O)(c2ccccc2)CC1 ; what Emax value has been reported? 98

What Emax value was documented for this compound, CS(=O)(=O)N[C@H]1CCCN(C(=O)C(F)F)[C@H]1CO[C@H]1CC[C@@H](c2ccccc2)CC1 (relative stereo) ? 103

Look at this compound and give its reported Emax. CS(=O)(=O)N[C@H]1CCCN[C@H]1CO[C@H]1CC[C@@H](c2ccc(F)cc2F)CC1 (relative stereo) 96

Requested field: Emax. Item: CC(=O)N1CCC[C@H](NS(C)(=O)=O)[C@@H]1CO[C@H]1CC[C@@H](C)CC1 (relative stereo) 88

Field request: Emax | item: CC(C)OC(=O)N1CCC[C@H](NS(C)(=O)=O)[C@@H]1CO[C@H]1C[C@@H](c2ccccc2)C1 (relative stereo) 98

Give the measured Emax of CCNC(=O)N1CCC[C@H](NS(C)(=O)=O)[C@@H]1CO[C@H]1CC[C@@H](C)CC1 (relative stereo) . 96

Given CN(C)S(=O)(=O)N[C@H]1CCCN(C(=O)C2CC2)[C@H]1CO[C@H]1CC[C@@H](c2ccccc2)CC1 , state its recorded Emax. 101

----------
Hi there, I'd appreciate the recorded Emax for every entry that follows.
- System under test: human orexin type 2 receptor (hOX2R) (Homo sapiens (Human), UniProt O43614)
- Sequence (O43614 whole entry): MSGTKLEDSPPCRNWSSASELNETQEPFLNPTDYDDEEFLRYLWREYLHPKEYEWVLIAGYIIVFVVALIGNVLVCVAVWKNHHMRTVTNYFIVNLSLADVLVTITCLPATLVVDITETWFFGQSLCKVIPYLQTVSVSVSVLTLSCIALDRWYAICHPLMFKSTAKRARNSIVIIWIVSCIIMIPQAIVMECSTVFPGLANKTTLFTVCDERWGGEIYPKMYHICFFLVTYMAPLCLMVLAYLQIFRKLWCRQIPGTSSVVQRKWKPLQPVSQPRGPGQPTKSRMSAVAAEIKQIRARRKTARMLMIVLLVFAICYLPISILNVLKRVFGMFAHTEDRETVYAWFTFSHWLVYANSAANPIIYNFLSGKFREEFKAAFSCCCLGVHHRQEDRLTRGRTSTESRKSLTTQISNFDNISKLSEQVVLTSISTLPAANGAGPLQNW
- Test name: Measurement of orexin type 2 receptor agonist activity (Experimental Example 2-1, FLIPR TETRA, intracellular Ca2+)
- Type: cell-based
- Assay conditions: CHO dhfr- cells expressing hOX2R, FLIPR TETRA, Fluo-4AM; read-out: Emax (%)
Answer in %, number only, no unit symbol.

// returns reported Emax for input CCS(=O)(=O)N[C@H]1CCCN(C(=O)OC)[C@H]1CO[C@H]1CC[C@@H](c2ccccc2)CC1 (relative stereo) 105

# get_value(readout='Emax', item= CC(=O)N1CCC[C@H](NS(C)(=O)=O)[C@@H]1CO[C@H]1CC[C@@H](c2cccc(C(F)(F)F)c2)CC1 (relative stereo) ) 102

What Emax value was documented for this compound, CS(=O)(=O)N[C@H]1CCCN(C(=O)C2CC2)[C@H]1CO[C@H]1CC[C@@H](c2cccc(F)c2F)CC1 ? 105

Field request: Emax | item: COC(=O)N1CCC[C@H](NS(C)(=O)=O)[C@@H]1CO[C@H]1CC[C@@H](c2ccccc2OC)CC1 95

Bench note: what Emax did CS(=O)(=O)N[C@H]1CCCN(C(=O)C2CC2)[C@H]1CO[C@H]1CC[C@@H](C)CC1 (relative stereo) show? 90

Which Emax reading was recorded for the compound CS(=O)(=O)N[C@H]1CCCN(C(=O)C2CC2)[C@H]1CO[C@H]1C[C@@H](c2ccccc2)C1 (relative stereo) ? 88

Return reported Emax; argument: CC(=O)N1CCC[C@H](NS(C)(=O)=O)[C@@H]1CO[C@H]1CC[C@@H](c2cccc(C#N)c2)CC1 (relative stereo) 93

Find the recorded Emax belonging to CC(=O)N1CCC[C@H](NS(C)(=O)=O)[C@@H]1CO[C@H]1CC[C@@H](c2ccccc2Cl)CC1 (relative stereo) and report it. 93

Look at this compound and give its reported Emax. CS(=O)(=O)N[C@H]1CCCN(C(=O)C2CCCC2)[C@H]1COC1CCN(c2ccccc2F)CC1 (relative stereo) 85

So what does the record say about Emax for CCNC(=O)N1CCC[C@H](NS(C)(=O)=O)[C@@H]1CO[C@H]1CC[C@@H](c2cccc(C(F)(F)F)c2)CC1 (relative stereo) ? 110

Which value of Emax has been reported for CS(=O)(=O)N[C@H]1CCCN(C(=O)C2CCOCC2)[C@H]1CO[C@H]1CC[C@@H](c2ccccc2)CC1 (relative stereo) in the records? 111

Given the entry CCNC(=O)N1CCC[C@H](NS(C)(=O)=O)[C@@H]1CO[C@H]1CC[C@@H](c2ccccc2C#N)CC1 (relative stereo) , report its measured Emax. 88

Looking for the measured Emax of CS(=O)(=O)N[C@H]1CCCN(C(=O)C2CCC2)[C@H]1COC1CCN(c2ccccc2F)CC1 (relative stereo) , can you help? 110

----------
- System under test: UniProtKB O43614
- Test name: Measurement of orexin type 2 receptor agonist activity (Experimental Example 2-1, FLIPR TETRA, intracellular Ca2+)
- Assay type: cell-based
- Assay conditions: CHO dhfr- cells expressing hOX2R, FLIPR TETRA, Fluo-4AM; read-out: Emax (%)
I'd be grateful if you could share measured Emax for these entries.
Enter your answer as a number in %; do not include the unit.

May I ask what Emax has been recorded for CCNC(=O)N1CCC[C@H](NS(C)(=O)=O)[C@@H]1CO[C@H]1CC[C@@H](c2cnn(C)c2)CC1 (relative stereo) [Example 137] ? 101

Given the entry CC(C)OC(=O)N1CCC[C@H](NS(C)(=O)=O)[C@@H]1CO[C@H]1CCN(c2ncccn2)C[C@H]1F (relative stereo) [Example 342] , report its measured Emax. 104

What Emax value was documented for this compound, CC(C)(O)C(=O)N1CCC[C@H](NS(C)(=O)=O)[C@@H]1CO[C@H]1CC[C@@H](c2ccccc2)CC1 (relative stereo) [Example 189] ? 88

The reported measurements were obtained from patent US10287305B2.
